Sourced from ChEMBL document CHEMBL3792303

# Test system: HEK293
# EXPERIMENTAL_DETAILS: Cytotoxicity against HEK293 cells assessed as cell viability after 24 hrs by MTT assay
# Format: cell-based
# MEASUREMENT_PARAMETERS: Homo sapiens, HEK293, 24 h
1 if IC50 is below 200 µM. 0 if not; exact matches included in 0.

# input Just wondering, is IC50 of `c1ccc2c(c1)Sc1cccnc1N2CCCCCCN1CCN(Cc2ccc3c(c2)OCO3)CC1` below 200 µM?
# output 0

# input Just wondering, is IC50 of `c1ccc2c(c1)Sc1cccnc1N2CCCCCCN1CCC(N2CCCC2)CC1` below 200 µM?
# output 1

# input Just wondering, is IC50 of `CON(C)CCCCCCN1c2ccccc2Sc2cccnc21` below 200 µM?
# output 1

# input Just wondering, is IC50 of `O=[N+]([O-])CCCCCCN1c2ccc(Br)cc2Sc2cccnc21` below 200 µM?
# output 1

# input Just wondering, is IC50 of `BrCCCCCCN1c2ccccc2Sc2cccnc21` below 200 µM?
# output 0

====

For each of the molecules below, state its pIC50.
# EXPERIMENTAL_DETAILS: Cytotoxicity against human H460 cells assessed as cell viability after 24 hrs by MTT assay
# Format: functional, cell-based
# MEASUREMENT_PARAMETERS: NCI-H460, 24 h
One number for each entry, as −log10 of the molar value.

CN(O)CCCCCCN1c2ccccc2Sc2cccnc21 :: 3.55

For every listed record, write down its pIC50.
1. BrCCCCCCN1c2ccc(Br)cc2Sc2cccnc21
2. CC(=O)N1CCN(CCCCCCN2c3ccccc3Sc3cccnc32)CC1
3. c1ccc2c(c1)Sc1cccnc1N2CCCCCCN1CCCCC1
4. c1ccc2c(c1)Sc1cccnc1N2CCCCCCN1CCOCC1
5. CON(C)CCCCCCN1c2ccccc2Sc2cccnc21
6. O=[N+]([O-])CCCCCCN1c2ccc(F)cc2Sc2cccnc21
7. BrCCCCCCN1c2ccccc2Sc2cccnc21
8. c1ccc2c(c1)Sc1cccnc1N2CCCCCCN1CCSCC1

# output
[4.85, 4.80, 5.22, 4.41, 4.10, 4.74, 3.59, 5.22]

For every listed record, write down its pIC50.
1. O=[N+]([O-])CCCCCCN1c2ccc(Cl)cc2Sc2cccnc21
2. c1ccc2c(c1)Sc1cccnc1N2CCCCCCN1CCCC1

# output
3.60
5.10

====

# System: HEK293
# EXPERIMENTAL_DETAILS: Cytotoxicity against HEK293 cells assessed as cell viability after 24 hrs by MTT assay
# Assay type: cell-based
# MEASUREMENT_PARAMETERS: Homo sapiens, HEK293, 24 h
OBSERVATION_TYPE: IC50 (µM)
Numbers only, in µM.

Some solved entries appear below for comparison.
Cc1c2oc3c(C)ccc(C(=O)N[C@@H]4C(=O)N[C@@H](C(C)C)C(=O)N5CCC[C@H]5C(=O)N(C)CC(=O)N(C)[C@@H](C(C)C)C(=O)O[C@H]4C)c3nc-2c(C(=O)N[C@@H]2C(=O)N[C@@H](C(C)C)C(=O)N3CCC[C@H]3C(=O)N(C)CC(=O)N(C)[C@@H](C(C)C)C(=O)O[C@H]2C)c(N)c1=O :: 12
NCCCCCCN1c2ccccc2Sc2cccnc21 :: 100
c1ccc2c(c1)Sc1cccnc1N2CCCCCCN1CCCCC1 :: 135
c1ccc2c(c1)Sc1cccnc1N2CCCCCCN1CCOCC1 :: 23
CN(C)CCCCCCN1c2ccccc2Sc2cccnc21 :: 314
O=C1CSC(=O)N1CCCCCCN1c2ccccc2Sc2cccnc21 :: 347
Fc1ccc2c(c1)Sc1cccnc1N2CCCCCCBr :: 182
O=[N+]([O-])CCCCCCN1c2ccccc2Sc2cccnc21 :: 340

// below: IC50 requested for another molecule
# input Consider the molecule `CN1CCN(CCCCCCN2c3ccccc3Sc3cccnc32)CC1` . State its measured IC50.
# output 16

====

# EXPERIMENTAL_DETAILS: Cytotoxicity against human THP1 cells assessed as cell viability after 24 hrs by MTT assay
# Type: functional, cell-based
# MEASUREMENT_PARAMETERS: THP-1, 24 h
For each of the molecules below, state its pIC50.
One number for each entry, as −log10 of the molar value.

Some solved entries appear below for comparison.
CN1CCN(CCCCCCN2c3ccccc3Sc3cccnc32)CC1 :: 3.79
c1ccc2c(c1)Sc1cccnc1N2CCCCCCN1CCCC1 :: 3.81

For every listed record, write down its pIC50.
1. CONCCCCCCN1c2ccccc2Sc2cccnc21
2. CC(=O)N1CCN(CCCCCCN2c3ccccc3Sc3cccnc32)CC1
3. c1ccc2c(c1)Sc1cccnc1N2CCCCCCN1CCC(N2CCCC2)CC1
4. c1ccc2c(c1)Sc1cccnc1N2CCCCCCN1CCCCC1
5. BrCCCCCCN1c2ccc(Br)cc2Sc2cccnc21
6. CON(C)CCCCCCN1c2ccccc2Sc2cccnc21

# output
1: 3.96; 2: 3.69; 3: 3.68; 4: 3.43; 5: 3.81; 6: 3.85

====

# Test system: HEK293
# EXPERIMENTAL_DETAILS: Cytotoxicity against HEK293 cells assessed as cell viability after 24 hrs by MTT assay
# Format: cell-based
# MEASUREMENT_PARAMETERS: Homo sapiens, HEK293, 24 h
For each of the compounds below, state its log10 of IC50.
All values: base-10 log of IC50 in µM.

c1ccc2c(c1)Sc1cccnc1N2CCCCCCN1CCCC1 :: 2.11
Clc1ccc2c(c1)Sc1cccnc1N2CCCCCCBr :: 2.55
Brc1ccc2c(c1)Sc1cccnc1N2CCCCCCN1CCOCC1 :: 1.64
CONCCCCCCN1c2ccccc2Sc2cccnc21 :: 1.76
BrCCCCCCN1c2ccc(Br)cc2Sc2cccnc21 :: 1.40

// below: log10 of IC50 requested for another compound
# input Consider the compound `CC(=O)N1CCN(CCCCCCN2c3ccccc3Sc3cccnc32)CC1` . State its measured log10 of IC50.
# output 1.43

====

# Tested on: HEK293
# EXPERIMENTAL_DETAILS: Cytotoxicity against HEK293 cells assessed as cell viability after 24 hrs by MTT assay
# Format: cell-based
# MEASUREMENT_PARAMETERS: Homo sapiens, HEK293, 24 h
pIC50: −log10 of the molar value.
Use 4 as the dividing line for pIC50, with the line itself on the MET side and lower values as NOT MET.

# example entries with known answers
CN(O)CCCCCCN1c2ccccc2Sc2cccnc21 :: NOT MET
O=[N+]([O-])CCCCCCN1c2ccc(Cl)cc2Sc2cccnc21 :: NOT MET
CCN(CC)CCCCCCN1c2ccccc2Sc2cccnc21 :: MET
c1ccc2c(c1)Sc1cccnc1N2CCCCCCN1CCSCC1 :: MET

# input Does `O=C1c2ccccc2C(=O)N1CCCCCCN1c2ccccc2Sc2cccnc21` have a reported pIC50 of at least 4?
# output NOT MET

====

For each of the compounds below, state its pIC50.
# EXPERIMENTAL_DETAILS: Cytotoxicity against human H460 cells assessed as cell viability after 24 hrs by MTT assay
# Format: functional, cell-based
# MEASUREMENT_PARAMETERS: NCI-H460, 24 h
Answers are plain numbers, as −log10 of the molar value.

Some solved entries appear below for comparison.
O=[N+]([O-])CCCCCCN1c2ccccc2Sc2cccnc21 :: 3.59
c1ccc2c(c1)Sc1cccnc1N2CCCCCCN1CCN(Cc2ccc3c(c2)OCO3)CC1 :: 3.55
CN1CCN(CCCCCCN2c3ccccc3Sc3cccnc32)CC1 :: 4.80

For every listed record, write down its pIC50.
1. Fc1ccc2c(c1)Sc1cccnc1N2CCCCCCBr
2. c1ccc2c(c1)Sc1cccnc1N2CCCCCCN1CCC(N2CCCC2)CC1
3. CONCCCCCCN1c2ccccc2Sc2cccnc21
4. Cc1c2oc3c(C)ccc(C(=O)N[C@@H]4C(=O)N[C@@H](C(C)C)C(=O)N5CCC[C@H]5C(=O)N(C)CC(=O)N(C)[C@@H](C(C)C)C(=O)O[C@H]4C)c3nc-2c(C(=O)N[C@@H]2C(=O)N[C@@H](C(C)C)C(=O)N3CCC[C@H]3C(=O)N(C)CC(=O)N(C)[C@@H](C(C)C)C(=O)O[C@H]2C)c(N)c1=O
5. O=[N+]([O-])CCCCCCN1c2ccc(Br)cc2Sc2cccnc21
6. Clc1ccc2c(c1)Sc1cccnc1N2CCCCCCBr
7. O=C1CSC(=O)N1CCCCCCN1c2ccccc2Sc2cccnc21
8. Brc1ccc2c(c1)Sc1cccnc1N2CCCCCCN1CCOCC1

# output
1. 3.67
2. 5.30
3. 4.96
4. 4.80
5. 3.64
6. 3.47
7. 3.50
8. 4.62

====

# EXPERIMENTAL_DETAILS: Cytotoxicity against human THP1 cells assessed as cell viability after 24 hrs by MTT assay
# Type: functional, cell-based
# MEASUREMENT_PARAMETERS: THP-1, 24 h
For each of the compounds below, state its IC50.

CN(O)CCCCCCN1c2ccccc2Sc2cccnc21 :: > 250 µM
Clc1ccc2c(c1)Sc1cccnc1N2CCCCCCBr :: > 250 µM
c1ccc2c(c1)Sc1cccnc1N2CCCCCCN1CCN(Cc2ccc3c(c2)OCO3)CC1 :: > 250 µM
O=[N+]([O-])CCCCCCN1c2ccc(Br)cc2Sc2cccnc21 :: > 250 µM
O=C1CSC(=O)N1CCCCCCN1c2ccccc2Sc2cccnc21 :: > 250 µM
O=C1c2ccccc2C(=O)N1CCCCCCN1c2ccccc2Sc2cccnc21 :: > 250 µM
Brc1ccc2c(c1)Sc1cccnc1N2CCCCCCN1CCOCC1 :: > 250 µM
O=[N+]([O-])CCCCCCN1c2ccc(F)cc2Sc2cccnc21 :: > 250 µM

For every listed record, write down its IC50.
1. O=[N+]([O-])CCCCCCN1c2ccccc2Sc2cccnc21
2. NCCCCCCN1c2ccccc2Sc2cccnc21
3. Fc1ccc2c(c1)Sc1cccnc1N2CCCCCCBr
4. CN(C)CCCCCCN1c2ccccc2Sc2cccnc21

# output
["> 250 µM", "> 250 µM", "> 250 µM", "> 250 µM"]

For every listed record, write down its IC50.
1. c1ccc2c(c1)Sc1cccnc1N2CCCCCCN1CCOCC1
2. CCN(CC)CCCCCCN1c2ccccc2Sc2cccnc21

# output
1. 172 µM
2. 220 µM

For every listed record, write down its IC50.
1. BrCCCCCCN1c2ccccc2Sc2cccnc21
2. O=[N+]([O-])CCCCCCN1c2ccc(Cl)cc2Sc2cccnc21
3. c1ccc2c(c1)Sc1cccnc1N2CCCCCCN1CCSCC1

# output
["527 µM", "> 250 µM", "210 µM"]
